Measured values drawn from patent US9290476B2 for this set.

# testedTarget: human RORγt ligand binding domain (RORγt LBD) (Homo sapiens (Human))
# Sequence (P51449 other isoform, or with tags, fused parts or gaps): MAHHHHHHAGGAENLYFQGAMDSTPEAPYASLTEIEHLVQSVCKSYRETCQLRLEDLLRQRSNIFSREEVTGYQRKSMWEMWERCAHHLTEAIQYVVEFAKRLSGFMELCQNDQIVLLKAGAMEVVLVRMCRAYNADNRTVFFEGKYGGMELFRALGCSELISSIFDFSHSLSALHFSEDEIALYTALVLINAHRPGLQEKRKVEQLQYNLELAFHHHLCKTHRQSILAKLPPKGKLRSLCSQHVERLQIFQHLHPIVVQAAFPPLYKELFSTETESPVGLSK
# assayComment: RORγt ThermoFluor assay (thermal shift binding affinity)
# conditionSummary: estimated from thermal shift
measuredProperty: Kd (µM)

Worked cases, answers included:
{"compound": "CCN(CC)c1nc2ccc(C(O)(c3ccc(C(F)(F)F)nc3)c3cncn3C)cc2c(C#N)c1Cc1ccc(-n2cccn2)cc1 (single isomer, unassigned) [Example 74C]", "testedTarget": "human RORγt ligand binding domain (RORγt LBD) (Homo sapiens (Human))", "endpointUnit": "µM", "Kd": 21}
{"compound": "Cn1cncc1C(O)(c1ccc(Cl)cc1)c1ccc2nc(C#N)c(Cc3ccc(-n4cccn4)cc3)c(C#N)c2c1 (single isomer, unassigned) [Example 71B]", "testedTarget": "human RORγt ligand binding domain (RORγt LBD) (Homo sapiens (Human))", "endpointUnit": "µM", "Kd": 0.0016}
{"compound": "Cc1cc(C(O)(c2ccc(C#N)cc2)c2cncn2C)cc2c(C#N)c(Cc3ccc(-n4cccn4)cc3)c(C#N)nc12 (single isomer, unassigned) [Example 66B]", "testedTarget": "human RORγt ligand binding domain (RORγt LBD) (Homo sapiens (Human))", "endpointUnit": "µM", "Kd": 0.27}
{"compound": "COc1nc2ccc(C(O)(c3ccc(C(F)(F)F)nc3)c3cncn3C)cc2c(C#N)c1Cc1ccc(-n2cccn2)cc1 (single isomer, unassigned) [Example 73B]", "testedTarget": "human RORγt ligand binding domain (RORγt LBD) (Homo sapiens (Human))", "endpointUnit": "µM", "Kd": 0.0045}
{"compound": "Cn1cncc1C(O)(c1ccc(C(F)(F)F)nc1)c1ccc2nc(N3CCC3)c(Cc3ccc(C(F)(F)F)cc3)c(Cl)c2c1 (racemic) [Example 92A]", "testedTarget": "human RORγt ligand binding domain (RORγt LBD) (Homo sapiens (Human))", "endpointUnit": "µM", "Kd": 0.0025}

A = OC(c1cccnc1)(c1ccc2nc(Cl)c(Cc3ccc(Cl)cc3)c(Cl)c2c1)c1cncs1 (stereo not shown)
B = CCc1nc2ccc(C(O)(c3cnnn3C)C3CN(C(C)=O)C3)cc2c(Cl)c1Cc1ccc(C(F)(F)F)cc1 (single isomer, unassigned) [Example 90C]
**Q:** // which entry has the larger Kd value, A or B ? Write down the label of the entry you select.
**A:** A
(A: 0.00083 µM, B: 0.00032 µM)

A = CCN(C)c1nc2ccc(C(O)(c3ccc(Cl)cc3)c3cncn3C)cc2c(Cl)c1Cc1ccc(-n2cccn2)cc1 (stereo not shown)
B = Cn1cncc1C(O)(c1ccc2nc(Cl)c(Cc3ccc(-n4cccn4)cc3)c(Cl)c2c1)c1cncn1C
C = COc1ccc(Cc2c(Cl)nc3ccc(C(O)(c4cccnc4)c4cccc(Cl)c4)cc3c2Cl)cc1 (stereo not shown)
D = COc1ccc(C(O)(c2ccc3nc(OC)c(Cc4ccc(-n5cccn5)cc4)c(Cl)c3c2)c2cncs2)cn1 (stereo not shown) [Example 20A]
**Q:** // ranking: key=Kd, reverse=True Output the labels ranked as instructed.
**A:** A, C, D, B
(A: 0.31 µM, C: 0.015 µM, D: 0.0038 µM, B: 0.0022 µM)

1 = COc1nc2ccc(C(O)(c3ccc(C#N)cc3)c3cncn3C)cc2c(C#N)c1Cc1ccc(-n2cccn2)cc1 (single isomer, unassigned) [Example 76B]
2 = CCOc1nc2ccc(C(O)(c3cncs3)c3cncn3C)cc2c(Cl)c1Cc1ccc(-n2cccn2)cc1 (stereo not shown)
**Q:** Which shows the larger Kd value: 1 or 2 ? When you have decided, please share the label of that item.
**A:** 1
